- Tested on: SNU-1079 cells (IDHm ICC)
- assay-comment: MTT proliferation / cell viability assay in SNU-1079
- Assay type: cell-based, human
- conditions-used: Homo sapiens, read-out: Proliferation IC50
pIC50: −log10 of the molar value.
measured-property: pIC50

In [3]: df
Out[3]:
                            smiles_notation      target_or_test_system  observed_value
0  Cc1nc(Nc2ncc(C(=O)Nc3c(C)cccc3Cl)s2)cc(N2CCN(CCO)CC2)n1  SNU-1079 cells (IDHm ICC)            7.94

###

- Tested on: ICC2 cells (IDH WT ICC)
- assay-comment: cells
- conditions-used: Homo sapiens, read-out: Proliferation IC50
pIC50: −log10 of the molar value.
measured-property: pIC50

>>> print(df.to_string())
                            smiles_notation  observed_value
0  Cc1nc(Nc2ncc(C(=O)Nc3c(C)cccc3Cl)s2)cc(N2CCN(CCO)CC2)n1            7.30

###

- Tested on: HuCCT1 cells (IDH WT ICC)
- assay-comment: cells
- conditions-used: Homo sapiens, HuCCT-1, read-out: Survival IC50
measured-property: IC50

                                   compound      target_or_test_system  observed_value
0  Cc1nc(Nc2ncc(C(=O)Nc3c(C)cccc3Cl)s2)cc(N2CCN(CCO)CC2)n1 [dasatinib]  HuCCT1 cells (IDH WT ICC)          977 nM

###

- Test system: CCLP1 cells (IDH WT ICC)
- assay-comment: Survival curves in CCLP1
- Type: cell-based
- conditions-used: Homo sapiens, CC-LP-1, FIG. 1B
pIC50: −log10 of the molar value.
measured-property: pIC50

In [3]: df
Out[3]:
                            smiles_notation     target_or_test_system  measured_property  observed_value
0  Cc1nc(Nc2ncc(C(=O)Nc3c(C)cccc3Cl)s2)cc(N2CCN(CCO)CC2)n1  CCLP1 cells (IDH WT ICC)              pIC50            5.09

###

- System: SNU-1079 cells (IDHm ICC)
- assay-comment: cells
- conditions-used: Homo sapiens, read-out: Survival IC50
pIC50: −log10 of the molar value.
measured-property: pIC50

In [3]: df
Out[3]:
                                   compound  measured_property  observed_value
0  Cc1nc(Nc2ncc(C(=O)Nc3c(C)cccc3Cl)s2)cc(N2CCN(CCO)CC2)n1 [dasatinib]              pIC50            7.64
